# target_or_system: human TPO receptor (hTPOR) (Homo sapiens, UniProt P40238)
# Sequence (P40238 26-635): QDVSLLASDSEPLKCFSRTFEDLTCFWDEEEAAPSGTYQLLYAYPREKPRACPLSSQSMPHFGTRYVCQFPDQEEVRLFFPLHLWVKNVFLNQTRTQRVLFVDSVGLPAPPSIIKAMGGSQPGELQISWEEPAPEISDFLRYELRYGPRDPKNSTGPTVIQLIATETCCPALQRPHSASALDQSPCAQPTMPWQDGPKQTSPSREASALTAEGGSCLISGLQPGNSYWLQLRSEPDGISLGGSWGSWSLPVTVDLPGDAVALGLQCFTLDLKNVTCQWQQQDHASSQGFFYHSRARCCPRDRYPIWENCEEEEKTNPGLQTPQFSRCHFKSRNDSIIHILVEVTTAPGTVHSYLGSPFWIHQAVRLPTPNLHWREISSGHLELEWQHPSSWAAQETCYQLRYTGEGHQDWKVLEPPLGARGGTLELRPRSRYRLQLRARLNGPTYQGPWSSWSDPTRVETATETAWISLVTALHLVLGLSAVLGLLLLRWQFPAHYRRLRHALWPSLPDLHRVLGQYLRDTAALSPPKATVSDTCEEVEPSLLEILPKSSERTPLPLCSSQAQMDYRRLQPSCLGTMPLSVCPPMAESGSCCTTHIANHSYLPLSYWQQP
# method_summary: Proliferation of TPO dependent BaF/hTPOR cells (thrombopoietic activity, WST-1)
# reported_conditions: 20 hours + 4 hours WST-1, absorbance at 450 nm, ED50 = half concentration of the concentration showing the maximum thrombopoietic activity
pEC50: −log10 of the molar value.
property: pEC50

INSERT INTO assay_data (input_smiles, reported_measurement) VALUES
  ('O=C1NC(=S)S/C1=C\c1ccc(C(=O)Nc2nc(-c3ccc(Cl)c(Cl)c3)cs2)cc1', 7.92),
  ('O=C1NC(=S)S/C1=C\c1ccc(C(=O)Nc2nc(-c3cc(F)c(F)cc3F)cs2)cc1', 7.10),
  ('Cc1sc(NC(=O)c2ccc(/C=C3\SC(=S)NC3=O)cc2)nc1-c1ccc(Cl)cc1', 7.57),
  ('CCc1sc(NC(=O)c2ccc(/C=C3\SC(=S)NC3=O)cc2)nc1-c1ccccc1', 7.33);

---

# target_or_system: human TPO receptor (hTPOR) (Homo sapiens)
# method_summary: Proliferation of TPO dependent BaF/hTPOR cells (thrombopoietic activity, WST-1)
# reported_conditions: 20 hours + 4 hours WST-1, absorbance at 450 nm, ED50 = half concentration of the concentration showing the maximum thrombopoietic activity
pEC50: −log10 of the molar value.
Below, each entry is listed alongside its reported pEC50.
property: pEC50

INSERT INTO measurements (molecule, reported_measurement) VALUES
  ('COC(=O)c1ccc(-c2csc(NC(=O)c3ccc(/C=C4\SC(=S)NC4=O)cc3)n2)cc1 [Compound A-12]', 7.96),
  ('O=C1NC(=O)/C(=C/c2ccc(C(=O)Nc3nc(-c4ccc(F)c(F)c4)cs3)cc2)S1 [Compound B-18]', 7.80),
  ('O=C1NC(=S)S/C1=C\c1ccc(C(=O)Nc2nc(-c3cccc(OC(F)(F)F)c3)cs2)cc1 [Compound A-63]', 7.80),
  ('O=C1NC(=S)S/C1=C\c1ccc(C(=O)Nc2nc(-c3ccc(F)cc3)c(CCCl)s2)cc1 [Compound A-43]', 7.14);
